Please provide measured RELATIVE BINDING AFFINITY Progesterone for the entries that follow.
target: progesterone receptor (estrogen-primed rabbit uterus) (Oryctolagus cuniculus, UniProt P06186); construct: preparation of cytosols for the progesterone and glucocorticoid receptor assays; from tissue; host or cells: uterus of estradiol-primed immature female New Zealand White rabbits (cytosol); assay: Relative binding affinity, progesterone receptor; conditions: estrogen-primed rabbit uterus; progesterone = 100%
Give just the numeric value; % need not be written.

[ask] Output RELATIVE BINDING AFFINITY Progesterone of CC(=O)O[C@]1(C(=O)CF)CCC2C3CCC4=CC(=O)CCC4=C3C(c3ccc(N(C)C)cc3)C[C@@]21C (stereo partly shown) [Compound 13]
[reply] 125

[ask] Item CCC(=O)[C@@]1(OC(C)=O)CCC2C3CCC4=CC(=O)CCC4=C3C(c3ccc(N(C)C)cc3)C[C@@]21C (stereo partly shown) [Compound 28] : provide RELATIVE BINDING AFFINITY Progesterone
[reply] 129

[ask] Quickly give me recorded RELATIVE BINDING AFFINITY Progesterone for CC(=O)O[C@]1(C(=O)CBr)CCC2C3CCC4=CC(=O)CCC4=C3C(c3ccc(N(C)C)cc3)C[C@@]21C (stereo partly shown) [Compound 14B]
[reply] 130

[ask] Supply recorded RELATIVE BINDING AFFINITY Progesterone for CN(C)c1ccc(C2CC3(C)C(CCC34OCC4=O)C3CCC4=CC(=O)CCC4=C23)cc1 (stereo not shown) [Compound 12] here.
[reply] 261

* * *

tested on: progesterone-induced endometrial proliferation; test: AntiClauberg test; assay type: in vivo, rabbit; conditions: Table 2; oral; CDB-2914 = 100 (assigned)
Each record is given criterion met if its reported BIOLOGICAL ACTIVITY antiClauberg is strictly below 100. Records at or above 100 are given criterion not met.

[ask] Report whether reported BIOLOGICAL ACTIVITY antiClauberg is lower than 100 (strictly) for `CC(=O)O[C@]1(C(C)=O)CC[C@H]2[C@@H]3CCC4=CC(=O)CCC4=C3[C@@H](c3ccc(N4CCOCC4)cc3)C[C@@]21C`
[reply] criterion met

[ask] is_below(BIOLOGICAL ACTIVITY antiClauberg, 100) for C=COCC(=O)[C@@]1(OC(C)=O)CCC2C3CCC4=CC(=O)CCC4=C3C(c3ccc(N(C)C)cc3)C[C@@]21C (stereo partly drawn) ?
[reply] criterion not met

[ask] Record COC1(C(C)=O)CCC2C3CCC4=CC(=O)CCC4=C3C(c3ccc(N(C)C)cc3)CC21C (stereo not drawn) [Compound 97a] : is its BIOLOGICAL ACTIVITY antiClauberg strictly below 100?
[reply] criterion not met

[ask] Hello, I'm reviewing records and need to know if BIOLOGICAL ACTIVITY antiClauberg of CC(=O)OCC(=O)[C@@]1(OC(C)=O)CC[C@H]2[C@@H]3CCC4=CC(=O)CCC4=C3[C@@H](c3ccc(C(C)=O)cc3)C[C@@]21C [Compound 106b] is below 100. Could you check?
[reply] criterion met

[ask] BIOLOGICAL ACTIVITY antiClauberg strictly < 100 for this molecule? COCC(=O)[C@@]1(OC)CC[C@H]2[C@@H]3CCC4=CC(=O)CCC4=C3[C@@H](c3ccc(N(C)C)cc3)C[C@@]21C [Compound 113a]
[reply] criterion not met

[ask] Could you please tell me whether BIOLOGICAL ACTIVITY antiClauberg recorded for `CSc1ccc([C@H]2C[C@@]3(C)[C@@H](CC[C@]3(OC(C)=O)C(C)=O)[C@@H]3CCC4=CC(=O)CCC4=C32)cc1` is less than 100?
[reply] criterion met

[ask] Regarding COC(=O)OCC(=O)C1(OC(C)=O)CCC2C3CCC4=CC(=O)CCC4=C3C(c3ccc(N(C)C)cc3)CC21C (stereo not drawn) [Compound 126c] , kindly confirm whether its BIOLOGICAL ACTIVITY antiClauberg is beneath 100.
[reply] criterion not met

[ask] For this molecule, is BIOLOGICAL ACTIVITY antiClauberg lower than 100? COCC(=O)C1(OC(C)=O)CCC2C3CCC4=CC(=O)CCC4=C3C(c3ccc(C(C)=O)cc3)CC21C (stereo not drawn) [Compound 123b]
[reply] criterion met

[ask] Is BIOLOGICAL ACTIVITY antiClauberg strictly under 100 for the entry `CC(=O)O[C@]1(C(=O)COC(=O)CN(C)C)CC[C@H]2[C@@H]3CCC4=CC(=O)CCC4=C3[C@@H](c3ccc(N(C)C)cc3)C[C@@]21C` ?
[reply] criterion met

* * *

target: progesterone receptor (estrogen-primed rabbit uterus) (Oryctolagus cuniculus); construct: preparation of cytosols for the progesterone and glucocorticoid receptor assays; from tissue; host or cells: uterus of estradiol-primed immature female New Zealand White rabbits (cytosol); assay: Relative binding affinity, progesterone receptor; conditions: Table 2; estrogen-primed rabbit uterus; progesterone = 100%
recorded-metric: BINDING AFFINITY Progester (%)
Report as a plain number; the unit % is understood.

[ask] Tell me its BINDING AFFINITY Progester given CCCCCCC(=O)O[C@]1(C(C)=O)CC[C@H]2[C@@H]3CCC4=CC(=O)CCC4=C3[C@@H](c3ccc(N(C)C)cc3)C[C@@]21C [Compound 69D] as the entry.
[reply] 40

[ask] For the molecule COC1(C(C)=O)CCC2C3CCC4=CC(=O)CCC4=C3C(c3ccc(N(C)C)cc3)CC21C (stereo not shown) [Compound 97a] , give its reported BINDING AFFINITY Progester.
[reply] 120

[ask] For `CC(=O)O[C@]1(C(C)=O)CC[C@H]2[C@@H]3CCC4=CC(=O)CCC4=C3[C@@H](c3ccc(N4CCOCC4)cc3)C[C@@]21C` , write its BINDING AFFINITY Progester.
[reply] 109

[ask] Output BINDING AFFINITY Progester of CCC(=O)OCC(=O)[C@@]1(OC(C)=O)CCC2C3CCC4=CC(=O)CCC4=C3C(c3ccc(N(C)C)cc3)C[C@@]21C (stereo partly shown) [Compound 126a]
[reply] 95

[ask] Provide only the value of recorded BINDING AFFINITY Progester for CC(=O)O[C@]1(C(C)=O)CC[C@H]2[C@@H]3CCC4=CC(=O)CCC4=C3[C@@H](c3ccc(N(C)C)cc3)C[C@@]21C [Compound 69B, reference compound]
[reply] 122

[ask] Please list BINDING AFFINITY Progester recorded for the molecule CCC(=O)OC1(C(C)=O)CCC2C3CCC4=CC(=O)CCC4=C3C(c3ccc(N(C)C)cc3)CC21C (stereo not shown) [Compound 69C]
[reply] 91

[ask] Query BINDING AFFINITY Progester for COCC(=O)C1(OC(C)=O)CCC2C3CCC4=CC(=O)CCC4=C3C(c3ccc(C(C)=O)cc3)CC21C (stereo not shown) [Compound 123b]
[reply] 64

* * *

Target: progesterone receptor (estrogen-primed rabbit uterus) (Oryctolagus cuniculus, UniProt P06186)
Construct: preparation of cytosols for the progesterone and glucocorticoid receptor assays; from tissue; host or cells: uterus of estradiol-primed immature female New Zealand White rabbits (cytosol)
Sequence (P06186 1-930): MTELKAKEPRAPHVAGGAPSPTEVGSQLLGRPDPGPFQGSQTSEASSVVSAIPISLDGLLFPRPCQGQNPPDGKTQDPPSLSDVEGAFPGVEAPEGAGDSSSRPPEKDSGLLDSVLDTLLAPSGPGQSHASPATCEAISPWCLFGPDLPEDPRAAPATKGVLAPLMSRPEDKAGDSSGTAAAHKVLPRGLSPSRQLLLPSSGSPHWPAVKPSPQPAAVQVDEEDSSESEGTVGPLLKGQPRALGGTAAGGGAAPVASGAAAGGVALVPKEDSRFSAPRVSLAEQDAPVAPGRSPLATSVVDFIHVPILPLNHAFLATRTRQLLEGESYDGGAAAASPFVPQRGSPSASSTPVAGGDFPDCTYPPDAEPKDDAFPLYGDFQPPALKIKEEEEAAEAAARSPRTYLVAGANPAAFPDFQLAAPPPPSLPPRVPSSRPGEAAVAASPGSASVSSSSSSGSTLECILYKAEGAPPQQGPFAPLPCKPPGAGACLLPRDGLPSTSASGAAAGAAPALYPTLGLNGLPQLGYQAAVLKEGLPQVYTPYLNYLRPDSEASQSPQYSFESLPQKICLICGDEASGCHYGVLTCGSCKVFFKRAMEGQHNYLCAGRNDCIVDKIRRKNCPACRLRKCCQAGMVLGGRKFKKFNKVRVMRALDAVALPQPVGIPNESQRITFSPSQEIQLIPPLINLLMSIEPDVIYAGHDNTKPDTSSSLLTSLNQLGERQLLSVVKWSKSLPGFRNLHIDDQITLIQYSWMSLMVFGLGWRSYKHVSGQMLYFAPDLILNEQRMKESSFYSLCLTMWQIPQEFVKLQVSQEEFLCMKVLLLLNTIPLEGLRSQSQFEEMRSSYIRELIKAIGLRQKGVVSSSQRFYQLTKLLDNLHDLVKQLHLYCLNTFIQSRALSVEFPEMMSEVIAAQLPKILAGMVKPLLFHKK
Assay: Relative binding affinity, progesterone receptor
Details: estrogen-primed rabbit uterus; progesterone = 100%
Please go through the items and note down their RELATIVE BINDING AFFINITY Progesterone.
Respond numerically; units are % and should not be typed.

[ask] Check the records and state RELATIVE BINDING AFFINITY Progesterone for COCC(=O)[C@@]1(OC(C)=O)CC[C@H]2[C@@H]3CCC4=CC(=O)CCC4=C3[C@@H](c3ccc(N(C)C)cc3)C[C@@]21C [Compound 38]
[reply] 103

[ask] Look up and report measured RELATIVE BINDING AFFINITY Progesterone for this entry: CC(=O)O[C@]1(C(=O)CSC(C)=O)CC[C@H]2[C@@H]3CCC4=CC(=O)CCC4=C3[C@@H](c3ccc(N(C)C)cc3)C[C@@]21C [Compound 17]
[reply] 37

[ask] Give a short answer stating reported RELATIVE BINDING AFFINITY Progesterone for CC(=O)O[C@]1(C(C)=O)CC[C@H]2[C@@H]3CCC4=CC(=O)CCC4=C3[C@@H](c3ccc(N(C)C)cc3)C[C@@]21C [Compound 69B, reference compound] .
[reply] 122

[ask] Retrieve RELATIVE BINDING AFFINITY Progesterone measured for CCOCC(=O)[C@@]1(OC(C)=O)CCC2C3CCC4=CC(=O)CCC4=C3C(c3ccc(N(C)C)cc3)C[C@@]21C (stereo partly drawn) [Compound 46] and print it.
[reply] 83

[ask] Quick one: give measured RELATIVE BINDING AFFINITY Progesterone for CC(=O)OCC(=O)[C@@]1(OC(C)=O)CCC2C3CCC4=CC(=O)CCC4=C3C(c3ccc(N(C)C)cc3)C[C@@]21C (stereo partly drawn) [Compound 15]
[reply] 103

[ask] Using known records, supply RELATIVE BINDING AFFINITY Progesterone for CC(=O)SCC(=O)C1(O)CCC2C3CCC4=CC(=O)CCC4=C3C(c3ccc(N(C)C)cc3)CC21C (stereo not drawn) [Compound 16]
[reply] 6
